Entry source: PubChem BioAssay AID1259407

System: CCRIS mutagenicity, Ames/micronucleus/aberration tests
Assay: CCRIS mutagenicity studies
Conditions: Test System: AMES SALMONELLA TYPHIMURIUM; Strain/Indicator: TA98; Metabolic Activation: HAMSTER, LIVER, S-9, AROCLOR 1254 (10%); Method: PREINCUBATION
Calls of active or inactive are those of the source. No rule for the calls is given here.
outcome_measure: mutagenic call

- compound: "C=C(C#N)C(=O)OC"
  outcome_measure: "mutagenic call"
  endpoint_result: "inactive; negative"
- compound: "C=CC(C)C#N (stereo unspecified)"
  outcome_measure: "mutagenic call"
  endpoint_result: "inactive; negative"
- compound: "CC(C)[N+](C)(CCOC(=O)C1c2ccccc2Oc2ccccc21)C(C)C"
  outcome_measure: "mutagenic call"
  endpoint_result: "inactive; negative"
- compound: "BrCC(Br)C1CCC(Br)C(Br)C1 (stereo unspecified)"
  outcome_measure: "mutagenic call"
  endpoint_result: "inactive; negative"
- compound: "CCOP(=O)(OCC)OCC"
  outcome_measure: "mutagenic call"
  endpoint_result: "inactive; negative"
- compound: "N#CCc1ccccc1"
  outcome_measure: "mutagenic call"
  endpoint_result: "inactive; negative"

====

System: CCRIS mutagenicity, Ames/micronucleus/aberration tests
Assay: CCRIS mutagenicity studies
Conditions: Test System: MOUSE LYMPHOMA; Strain/Indicator: L5178Y (TK+/TK-); Metabolic Activation: NONE; Method: SUSPENSION/PLATE
Calls of active or inactive are those of the source. No rule for the calls is given here.
Outcome codes: 1 = active, -1 = inactive

- smiles_representation: "Nc1n[nH]c(=S)s1"
  label_class: 1
- smiles_representation: "ClC/C=C/CCl"
  label_class: 1
- smiles_representation: "CC(=O)C1(c2ccccc2)CCNCC1"
  label_class: -1

====

System: CCRIS mutagenicity, Ames/micronucleus/aberration tests
Experiment: CCRIS mutagenicity studies
Conditions: Test System: AMES SALMONELLA TYPHIMURIUM; Strain/Indicator: TA98; Metabolic Activation: NONE; Method: STANDARD PLATE
Excerpt: The CCRIS database contains chemical records with carcinogenicity, mutagenicity, tumor promotion, and tumor inhibition test results. It was developed by the National Cancer Institute (NCI). Data are derived from studies cited in primary journals, current awareness tools, NCI reports, and other sources. Test results have been reviewed by experts in carcinogenesis and mutagenesis. CCRIS provides historical information from the years 1985 - 2011. It is no longer updated. […]
Active and inactive are the calls of the source. No rule for the calls is given here.
Outcome codes: active, inactive

- compound: "Cc1ccccn1"
  tested_on: "CCRIS mutagenicity, Ames/micronucleus/aberration tests"
  label_class: "inactive"
- compound: "Cc1cc(C(O)c2ncc([N+](=O)[O-])n2C)c(O)c(C(C)(C)C)c1 (centres undefined)"
  tested_on: "CCRIS mutagenicity, Ames/micronucleus/aberration tests"
  label_class: "inactive"
- compound: "O=c1c(Cl)c(Cl)cnn1S(=O)(=O)c1ccc(Cl)cc1"
  tested_on: "CCRIS mutagenicity, Ames/micronucleus/aberration tests"
  label_class: "inactive"
- compound: "C[n+]1c2n(c(=O)c3ccccc31)CCc1c-2[nH]c2ccccc12"
  tested_on: "CCRIS mutagenicity, Ames/micronucleus/aberration tests"
  label_class: "inactive"
- compound: "CC(C)(c1ccc(O)cc1)c1ccc(O)cc1"
  tested_on: "CCRIS mutagenicity, Ames/micronucleus/aberration tests"
  label_class: "inactive"
- compound: "CNC(=O)ON"
  tested_on: "CCRIS mutagenicity, Ames/micronucleus/aberration tests"
  label_class: "active"
- compound: "C=CC(=O)OCC(C)(C)COC(=O)C=C"
  tested_on: "CCRIS mutagenicity, Ames/micronucleus/aberration tests"
  label_class: "inactive"
- compound: "ClCc1ccccc1CCl"
  tested_on: "CCRIS mutagenicity, Ames/micronucleus/aberration tests"
  label_class: "inactive"
- compound: "O=C(O)c1cc(O)c2c(c1)C(=O)c1cccc(O)c1C2=O"
  tested_on: "CCRIS mutagenicity, Ames/micronucleus/aberration tests"
  label_class: "inactive"
- compound: "Nc1ccccc1SCSc1ccccc1N"
  tested_on: "CCRIS mutagenicity, Ames/micronucleus/aberration tests"
  label_class: "inactive"
- compound: "Cc1cc(C)c2ccc3ccccc3c2c1"
  tested_on: "CCRIS mutagenicity, Ames/micronucleus/aberration tests"
  label_class: "inactive"
- compound: "F"
  tested_on: "CCRIS mutagenicity, Ames/micronucleus/aberration tests"
  label_class: "inactive"
- compound: "O=C(/C=N/O)Nc1ccccc1"
  tested_on: "CCRIS mutagenicity, Ames/micronucleus/aberration tests"
  label_class: "inactive"
- compound: "COc1cc(NC(C)CCCN)c2ncccc2c1 (centres undefined)"
  tested_on: "CCRIS mutagenicity, Ames/micronucleus/aberration tests"
  label_class: "active"
